system: HCT-15
Lab note: compare GI50 with 3 µM, writing fulfilled if less and not fulfilled if equal or more.

Worked cases, answers included:
MOLECULE	ASSIGNED_LABEL
COc1ccc(C(=O)/C=C/c2cc(-c3ccc4c(c3)OCO4)n[nH]2)cc1OC	fulfilled
COc1ccc(C(=O)/C=C/c2cc(-c3cc(OC)c(OC)c(OC)c3)n[nH]2)cc1	fulfilled
COc1ccc(C(=O)/C=C/c2cc(-c3cc(OC)c(OC)c(OC)c3)n[nH]2)cc1OC	fulfilled

GI50 under 3 µM? Item: COc1cc(-c2cc(/C=C/C(=O)c3ccc4c(c3)OCO4)[nH]n2)cc(OC)c1OC [11e] fulfilled

Check if GI50 falls below 3 µM for COc1cc(-c2cc(/C=C/C(=O)c3ccc(Cl)c(Cl)c3)[nH]n2)cc(OC)c1OC [12e] . not fulfilled

Answer whether the molecule COc1cc(C(=O)/C=C/c2cc(-c3cc(OC)c(OC)c(OC)c3)n[nH]2)cc(OC)c1OC [10e] has GI50 strictly less than 3 µM fulfilled

====

test system: Breast
MEASURED_PROPERTY: GI50 (nM)
Report the value in nM with no unit label.

Recorded GI50, per entry:
MOLECULE	GI50, nM
COc1ccc(C(=O)/C=C/c2cc(-c3cc(OC)c(OC)c(OC)c3)n[nH]2)cc1 [7e]	1910
COc1cc(C(=O)/C=C/c2cc(-c3cc(OC)c(OC)c(OC)c3)n[nH]2)cc(OC)c1OC [10e]	1350
COc1cc(-c2cc(/C=C/C(=O)c3ccc(Cl)c(Cl)c3)[nH]n2)cc(OC)c1OC [12e]	4470

// below: GI50 requested for another molecule
Kindly state the measured GI50 obtained for COc1ccc(C(=O)/C=C/c2cc(-c3cc(OC)c(OC)c(OC)c3)n[nH]2)cc1OC [8e] with Breast. 1230

====

system: CNS; test: NCI SRB cytotoxicity, CNS panel average; type: cell-based, human; conditions: average of cell lines
MEASURED_PROPERTY: Log10 TGI (concentration in mol/L causing total growth inhibition (0% growth)) (mol/L)
API: value field is a number in mol/L; no unit string.

Below are worked cases with known answers.
COMPOUND	UNITS	NUMERIC_RESULT
COc1ccc(C(=O)/C=C/c2cc(-c3ccc4c(c3)OCO4)n[nH]2)cc1OC	mol/L	−5.14
COc1ccc(C(=O)/C=C/c2cc(-c3cc(OC)c(OC)c(OC)c3)n[nH]2)cc1	mol/L	−5.46
COc1cc(-c2cc(/C=C/C(=O)c3ccc(F)c(F)c3)[nH]n2)cc(OC)c1OC [13e]	mol/L	−4.38

Field request: Log10 TGI (concentration in mol/L causing total growth inhibition (0% growth)) | item: COc1cc(-c2cc(/C=C/C(=O)c3ccc4c(c3)OCO4)[nH]n2)cc(OC)c1OC [11e] −4.83

Can you look up the measured Log10 TGI (concentration in mol/L causing total growth inhibition (0% growth)) of COc1cc(C(=O)/C=C/c2cc(-c3cc(OC)c(OC)c(OC)c3)n[nH]2)cc(OC)c1OC [10e] for me? −5.46

Requested read-out: Log10 TGI (concentration in mol/L causing total growth inhibition (0% growth)). Entry: `COc1ccc(C(=O)/C=C/c2cc(-c3cc(OC)c(OC)c(OC)c3)n[nH]2)cc1OC` −5.53

Sample COc1cc(-c2cc(/C=C/C(=O)c3ccc(Cl)c(Cl)c3)[nH]n2)cc(OC)c1OC [12e] — what was its Log10 TGI (concentration in mol/L causing total growth inhibition (0% growth))? −4.25

====

Let's go through some recorded GI50 values for NCI-H226 together.
Please append the unit to your numeric answer.

MOLECULE	SUBJECT_OF_TEST	RESULT
COc1cc(C(=O)/C=C/c2cc(-c3cc(OC)c(OC)c(OC)c3)n[nH]2)cc(OC)c1OC [10e]	NCI-H226	1.6 µM
COc1cc(-c2cc(/C=C/C(=O)c3ccc4c(c3)OCO4)[nH]n2)cc(OC)c1OC [11e]	NCI-H226	3.31 µM
COc1ccc(C(=O)/C=C/c2cc(-c3ccc4c(c3)OCO4)n[nH]2)cc1OC	NCI-H226	3.4 µM
COc1ccc(C(=O)/C=C/c2cc(-c3cc(OC)c(OC)c(OC)c3)n[nH]2)cc1	NCI-H226	1.89 µM
COc1cc(-c2cc(/C=C/C(=O)c3ccc(Cl)c(Cl)c3)[nH]n2)cc(OC)c1OC [12e]	NCI-H226	18.6 µM

So what does the record say about GI50 for `COc1ccc(C(=O)/C=C/c2cc(-c3cc(OC)c(OC)c(OC)c3)n[nH]2)cc1OC` ? 1.69 µM

For the molecule shown here, COc1cc(-c2cc(/C=C/C(=O)c3ccc(F)c(F)c3)[nH]n2)cc(OC)c1OC [13e] , give the reported GI50. 3.72 µM

====

test system: Renal; assay: NCI SRB cytotoxicity, renal panel average; format: cell-based, human; settings: average of cell lines
MEASURED_PROPERTY: Log10 TGI (concentration in mol/L causing total growth inhibition (0% growth)) (mol/L)
I only need the number, in mol/L, no unit after it.

# annotated cases, reported Log10 TGI (concentration in mol/L causing total growth inhibition (0% growth)) shown
COMPOUND	NUMERIC_RESULT
COc1cc(-c2cc(/C=C/C(=O)c3ccc(Cl)c(Cl)c3)[nH]n2)cc(OC)c1OC [12e]	−4.22
COc1cc(-c2cc(/C=C/C(=O)c3ccc4c(c3)OCO4)[nH]n2)cc(OC)c1OC [11e]	−4.94
COc1ccc(C(=O)/C=C/c2cc(-c3cc(OC)c(OC)c(OC)c3)n[nH]2)cc1OC	−5.51
COc1cc(C(=O)/C=C/c2cc(-c3cc(OC)c(OC)c(OC)c3)n[nH]2)cc(OC)c1OC [10e]	−5.45
COc1cc(-c2cc(/C=C/C(=O)c3ccc(F)c(F)c3)[nH]n2)cc(OC)c1OC [13e]	−4.71
COc1ccc(C(=O)/C=C/c2cc(-c3ccc4c(c3)OCO4)n[nH]2)cc1OC	−5.01

Dear colleague, I am looking for the recorded Log10 TGI (concentration in mol/L causing total growth inhibition (0% growth)) of the following compound: `COc1ccc(C(=O)/C=C/c2cc(-c3cc(OC)c(OC)c(OC)c3)n[nH]2)cc1` −5.43

====

system: Non-small cell lung; assay: NCI SRB cytotoxicity, non-small cell lung panel average; assay type: cell-based, human; conditions: Homo sapiens, average of cell lines, read-out: Log10 LC50 (concentration in mol/L causing 50% cell death) (converted)
Listed here are molecules together with their documented log10(LC50).
// stored as log10 of LC50 expressed in µM

The examples below pair each entry with its known result.
MOLECULE	NUMERIC_RESULT
COc1ccc(C(=O)/C=C/c2cc(-c3cc(OC)c(OC)c(OC)c3)n[nH]2)cc1OC	0.81
COc1cc(-c2cc(/C=C/C(=O)c3ccc4c(c3)OCO4)[nH]n2)cc(OC)c1OC [11e]	1.73
COc1cc(-c2cc(/C=C/C(=O)c3ccc(Cl)c(Cl)c3)[nH]n2)cc(OC)c1OC [12e]	2.30
COc1ccc(C(=O)/C=C/c2cc(-c3cc(OC)c(OC)c(OC)c3)n[nH]2)cc1	1.34
COc1cc(C(=O)/C=C/c2cc(-c3cc(OC)c(OC)c(OC)c3)n[nH]2)cc(OC)c1OC [10e]	1.13

Dear colleague, I am looking for the recorded log10(LC50) of the following molecule: `COc1ccc(C(=O)/C=C/c2cc(-c3ccc4c(c3)OCO4)n[nH]2)cc1OC` 2.71

Requested field: log10(LC50). Item: COc1cc(-c2cc(/C=C/C(=O)c3ccc(F)c(F)c3)[nH]n2)cc(OC)c1OC [13e] 1.94

====

test system: LOX IMVI
Listing: GI50 of selected molecules

MOLECULE	GI50
COc1ccc(C(=O)/C=C/c2cc(-c3cc(OC)c(OC)c(OC)c3)n[nH]2)cc1OC	1380 nM
COc1cc(-c2cc(/C=C/C(=O)c3ccc(F)c(F)c3)[nH]n2)cc(OC)c1OC [13e]	3180 nM
COc1ccc(C(=O)/C=C/c2cc(-c3ccc4c(c3)OCO4)n[nH]2)cc1OC	1970 nM
COc1ccc(C(=O)/C=C/c2cc(-c3cc(OC)c(OC)c(OC)c3)n[nH]2)cc1	1580 nM
COc1cc(-c2cc(/C=C/C(=O)c3ccc(Cl)c(Cl)c3)[nH]n2)cc(OC)c1OC [12e]	3390 nM
COc1cc(C(=O)/C=C/c2cc(-c3cc(OC)c(OC)c(OC)c3)n[nH]2)cc(OC)c1OC [10e]	1520 nM

Continue with the next molecule.
For the molecule COc1cc(-c2cc(/C=C/C(=O)c3ccc4c(c3)OCO4)[nH]n2)cc(OC)c1OC [11e] , what GI50 is on record? 1820 nM
